inhibition at 50 µM: recorded values
- TGT: HDAC2 (Homo sapiens, UniProt Q92769)
- Construct: purchased Enzo Life Sciences
- Sequence (Q92769 whole entry): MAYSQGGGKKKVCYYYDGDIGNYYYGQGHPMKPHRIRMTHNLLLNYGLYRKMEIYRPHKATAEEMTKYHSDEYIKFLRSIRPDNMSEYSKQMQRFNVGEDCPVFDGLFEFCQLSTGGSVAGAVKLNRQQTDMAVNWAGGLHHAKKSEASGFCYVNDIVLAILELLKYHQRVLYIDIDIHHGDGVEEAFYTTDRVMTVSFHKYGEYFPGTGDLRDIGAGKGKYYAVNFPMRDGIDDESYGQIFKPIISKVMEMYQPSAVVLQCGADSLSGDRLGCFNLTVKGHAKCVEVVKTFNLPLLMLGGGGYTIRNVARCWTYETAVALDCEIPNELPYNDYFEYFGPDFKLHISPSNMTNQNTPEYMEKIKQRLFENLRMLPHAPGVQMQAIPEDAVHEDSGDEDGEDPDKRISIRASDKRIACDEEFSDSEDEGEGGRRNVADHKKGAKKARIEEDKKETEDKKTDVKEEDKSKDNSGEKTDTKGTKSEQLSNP
- METHOD: HDAC Inhibition Screening Assay (FLUOR DE LYS Fluorimetric Drug Discovery Kit), HDAC2
- Assay type: biochemical
- REPORTED CONDITIONS: 50 μM compound

- COMPOUND: "O=C(/C=C/c1ccc2c(c1)CCCC2NC(=O)c1cc(C(F)(F)F)cc(C(F)(F)F)c1)NO (stereo not drawn)"
  TGT: "HDAC2 (Homo sapiens, UniProt Q92769)"
  inhibition at 50 µM: "50 to 80%"
- COMPOUND: "O=C(CCCCCCC(=O)NC1CCc2cc(Br)ccc21)NO (stereo not drawn)"
  TGT: "HDAC2 (Homo sapiens, UniProt Q92769)"
  inhibition at 50 µM: "> 80%"
- COMPOUND: "COc1ccc2c(c1)CCC2NC(=O)CCCCCCC(=O)NO (stereo not drawn)"
  TGT: "HDAC2 (Homo sapiens, UniProt Q92769)"
  inhibition at 50 µM: "> 80%"
- COMPOUND: "O=C(/C=C/c1ccc2c(c1)CCCC2OCc1cc(C(F)(F)F)cc(C(F)(F)F)c1)NO (stereo not drawn)"
  TGT: "HDAC2 (Homo sapiens, UniProt Q92769)"
  inhibition at 50 µM: "> 80%"
- COMPOUND: "COc1ccc(CCNC2CCc3cc(/C=C/C(=O)NO)ccc32)cc1 (stereo not drawn)"
  TGT: "HDAC2 (Homo sapiens, UniProt Q92769)"
  inhibition at 50 µM: "> 80%"
- COMPOUND: "O=C(/C=C/c1ccc2c(c1)CCC2NCCc1ccc(F)cc1)NO (stereo not drawn)"
  TGT: "HDAC2 (Homo sapiens, UniProt Q92769)"
  inhibition at 50 µM: "> 80%"
- COMPOUND: "Nc1cc(F)ccc1NC(=O)CCCCCCC(=O)NC1CCc2cc(/C=C/C(=O)Nc3cc(Cl)cc(Cl)c3)ccc21 (stereo not drawn)"
  TGT: "HDAC2 (Homo sapiens, UniProt Q92769)"
  inhibition at 50 µM: "< 50%"
- COMPOUND: "Cc1[nH]c2ccccc2c1CCNC1CCc2cc(/C=C/C(=O)Nc3ccc(F)cc3N)ccc21 (stereo not drawn)"
  TGT: "HDAC2 (Homo sapiens, UniProt Q92769)"
  inhibition at 50 µM: "> 80%"
- COMPOUND: "CCN(CC)c1ccc(C(=O)NC2CCc3cc(/C=C/C(=O)NO)ccc32)cc1 (stereo not drawn)"
  TGT: "HDAC2 (Homo sapiens, UniProt Q92769)"
  inhibition at 50 µM: "> 80%"
- COMPOUND: "COc1ccc2c(c1)CCCC2NC(=O)CCCCCCC(=O)NO (stereo not drawn)"
  TGT: "HDAC2 (Homo sapiens, UniProt Q92769)"
  inhibition at 50 µM: "> 80%"
- COMPOUND: "O=C(/C=C/c1ccc(COc2ccc3c(c2)CCC(Cc2cc(C(F)(F)F)cc(C(F)(F)F)c2)C3=O)cc1)NO (stereo not drawn)"
  TGT: "HDAC2 (Homo sapiens, UniProt Q92769)"
  inhibition at 50 µM: "< 50%"
- COMPOUND: "Nc1cc(F)ccc1NC(=O)CCCCC(=O)N1CCN(C(=O)c2ccc3c(c2)CC/C(=C\\c2cc(C(F)(F)F)cc(C(F)(F)F)c2)C3=O)CC1"
  TGT: "HDAC2 (Homo sapiens, UniProt Q92769)"
  inhibition at 50 µM: "< 50%"
- COMPOUND: "Cc1[nH]c2ccccc2c1CCNC1CCCc2cc(/C=C/C(=O)NO)ccc21 (stereo not drawn)"
  TGT: "HDAC2 (Homo sapiens, UniProt Q92769)"
  inhibition at 50 µM: "> 80%"
- COMPOUND: "O=C(NO)c1ccc(COc2ccc3c(c2)CC(Cc2cc(C(F)(F)F)cc(C(F)(F)F)c2)C3=O)cc1 (stereo not drawn)"
  TGT: "HDAC2 (Homo sapiens, UniProt Q92769)"
  inhibition at 50 µM: "50 to 80%"
- COMPOUND: "O=C(/C=C/c1ccc2c(c1)CCC2NCCc1cc(C(F)(F)F)cc(C(F)(F)F)c1)NO (stereo not drawn)"
  TGT: "HDAC2 (Homo sapiens, UniProt Q92769)"
  inhibition at 50 µM: "> 80%"
- COMPOUND: "Nc1cc(F)ccc1NC(=O)/C=C/c1ccc2c(c1)CCCC2NC(=O)c1cc(C(F)(F)F)cc(C(F)(F)F)c1 (stereo not drawn)"
  TGT: "HDAC2 (Homo sapiens, UniProt Q92769)"
  inhibition at 50 µM: "< 50%"
- COMPOUND: "COc1ccc2c(c1)CCCC2NC(=O)CCCCCCC(=O)Nc1ccc(F)cc1N (stereo not drawn)"
  TGT: "HDAC2 (Homo sapiens, UniProt Q92769)"
  inhibition at 50 µM: "50 to 80%"
- COMPOUND: "Cc1[nH]c2ccccc2c1CCNC1CCCc2cc(/C=C/C(=O)Nc3ccc(F)cc3N)ccc21 (stereo not drawn)"
  TGT: "HDAC2 (Homo sapiens, UniProt Q92769)"
  inhibition at 50 µM: "> 80%"
- COMPOUND: "Nc1cc(F)ccc1NC(=O)CCCCNC(=O)c1ccc2c(c1)CC/C(=C\\c1cc(C(F)(F)F)cc(C(F)(F)F)c1)C2=O"
  TGT: "HDAC2 (Homo sapiens, UniProt Q92769)"
  inhibition at 50 µM: "< 50%"
- COMPOUND: "O=C(CCCCCC(=O)Nc1ccc2c(c1)CC/C(=C\\c1cc(C(F)(F)F)cc(C(F)(F)F)c1)C2=O)NO"
  TGT: "HDAC2 (Homo sapiens, UniProt Q92769)"
  inhibition at 50 µM: "> 80%"
- COMPOUND: "COc1ccc(N2C(=O)CN(C3CCc4cc(/C=C/C(=O)NO)ccc43)C2=O)cc1 (stereo not drawn)"
  TGT: "HDAC2 (Homo sapiens, UniProt Q92769)"
  inhibition at 50 µM: "> 80%"
- COMPOUND: "Nc1cc(F)ccc1NC(=O)/C=C/c1ccc2c(c1)CC/C(=C\\c1cc(C(F)(F)F)cc(C(F)(F)F)c1)C2=O"
  TGT: "HDAC2 (Homo sapiens, UniProt Q92769)"
  inhibition at 50 µM: "< 50%"
- COMPOUND: "O=C(/C=C/c1ccc2c(c1)CCC2NC(=O)OCc1cc(C(F)(F)F)cc(C(F)(F)F)c1)NO (stereo not drawn)"
  TGT: "HDAC2 (Homo sapiens, UniProt Q92769)"
  inhibition at 50 µM: "> 80%"
- COMPOUND: "COc1ccc2c(c1)CCC2NC(=O)CCCCCCC(=O)Nc1ccc(F)cc1N (stereo not drawn)"
  TGT: "HDAC2 (Homo sapiens, UniProt Q92769)"
  inhibition at 50 µM: "50 to 80%"
- COMPOUND: "O=C(/C=C/c1ccc2c(c1)CCC2OCc1cc(C(F)(F)F)cc(C(F)(F)F)c1)NO (stereo not drawn)"
  TGT: "HDAC2 (Homo sapiens, UniProt Q92769)"
  inhibition at 50 µM: "> 80%"
- COMPOUND: "O=C(/C=C/c1ccc2c(c1)CCC2NCc1cc(C(F)(F)F)cc(C(F)(F)F)c1)NO (stereo not drawn)"
  TGT: "HDAC2 (Homo sapiens, UniProt Q92769)"
  inhibition at 50 µM: "> 80%"
- COMPOUND: "CCN(CC)c1ccc(C(=O)NC2CCc3cc(/C=C/C(=O)NCCCCCC(=O)NO)ccc32)cc1 (stereo not drawn)"
  TGT: "HDAC2 (Homo sapiens, UniProt Q92769)"
  inhibition at 50 µM: "> 80%"
- COMPOUND: "O=C(/C=C/c1ccc(COc2ccc3c(c2)CC/C(=C\\c2cc(C(F)(F)F)cc(C(F)(F)F)c2)C3=O)cc1)NO"
  TGT: "HDAC2 (Homo sapiens, UniProt Q92769)"
  inhibition at 50 µM: "50 to 80%"
- COMPOUND: "O=C(CCCCCCC(=O)Nc1ccc2c(c1)CCC(Cc1cc(C(F)(F)F)cc(C(F)(F)F)c1)C2=O)NO (stereo not drawn)"
  TGT: "HDAC2 (Homo sapiens, UniProt Q92769)"
  inhibition at 50 µM: "> 80%"
- COMPOUND: "O=C(/C=C/c1ccc2c(c1)CC/C(=C\\c1cc(C(F)(F)F)cc(C(F)(F)F)c1)C2=O)NO"
  TGT: "HDAC2 (Homo sapiens, UniProt Q92769)"
  inhibition at 50 µM: "50 to 80%"
